# credit: patent US20230129258A1

Hi there, I'd appreciate the recorded EC50 (nM), PC3 co-culture for every entry that follows.
# target_or_system: CD137 on Jurkat reporter cells (Promega kit CS196005) (UniProt Q07011 24-255, limits assumed)
# Sequence (Q07011 24-255 limits assumed): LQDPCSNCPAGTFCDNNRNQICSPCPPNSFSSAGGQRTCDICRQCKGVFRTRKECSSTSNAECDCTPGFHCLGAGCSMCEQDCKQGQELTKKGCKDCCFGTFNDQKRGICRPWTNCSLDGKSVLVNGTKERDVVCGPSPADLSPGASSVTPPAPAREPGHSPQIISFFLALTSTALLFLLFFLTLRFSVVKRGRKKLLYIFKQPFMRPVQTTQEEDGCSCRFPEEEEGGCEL
# assay_protocol: cell-based or functional assay
Starred links: 1 amine or outer side, 2 acyl side, 3 side chain; linkers in the order of their positions; H or OH if unused. Positions of bridges follow the written chain, without caps; N, C: chain ends. Non-standard residues stand in square brackets, D forms with d. Chains are numbered I, II in the order given. No end group written: not given here. *: point of attachment. TATA = O=C(CC[*:1])N1CN(C(=O)CC[*:2])CN(C(=O)CC[*:3])C1; Dip = N[C@H](C(=O)O)C(c1ccccc1)c1ccccc1; Hyp = O=C(O)[C@@H]1C[C@@H](O)CN1; hArg = N=C(N)NCCCC[C@H](N)C(=O)O; tBuAla = CC(C)(C)C[C@H](N)C(=O)O; Nle = CCCC[C@H](N)C(=O)O; Pent4ynoyl = C#CCCC(=O)*
Return type: number; implicit unit nM.

For the binder shown here, BCY13274 (linker I:1-I:8-I:15 via TATA; linker II:1-II:8-II:15 via TATA (inferred); not fully specified (bridges); also: linker N-(acid-PEG3)-N-bis(PEG3-azide) on C-terminal dK of chain 1, joins two chain 2 copies via PYA triazoles) peptide 1: Ac-C[Hyp]LVNPLCL[Dip]P[dD]WTC[dK] peptide 2: Ac-C[tBuAla]PE[dK](Pent4ynoyl)PYCFADPY[Nle]CA , give the reported EC50 (nM), PC3 co-culture.
0.19

For the binder shown here, BCY13281 (not fully specified; BCY8928: Ac-(SEQ ID NO: 11)-A; TATA; linker at dLys(PYA)4; BCY13127: [dA]-[dA]-D-(SEQ ID NO: 35); TATA; linker at N-terminus) peptide 1: AADCXLVNPLCLEPDWTC peptide 2: CXPEXPYCFADPYXCA , give the reported EC50 (nM), PC3 co-culture.
0.17

For the binder shown here, BCY13280 (linker I:4-I:11-I:18, II:1-II:8-II:15 via TATA (inferred); not fully specified (N-terminus, bridges); also: 1:2 complex: two copies of chain 2 (BCY8928) on the branched linker) peptide 1: [dA]EDC[Hyp]LVNPLCLEP[dD]WTC peptide 2: Ac-C[tBuAla]PE[dK](Pent4ynoyl)PYCFADPY[Nle]CA , give the reported EC50 (nM), PC3 co-culture.
0.19

For the binder shown here, BCY12978 (linker I:4-I:11-I:18, II:1-II:8-II:15 via TATA (inferred); not fully specified (bridges); also: chain 1 N-terminus and chain 2 dLys(PYA) joined through N-(acid-PEG3)-N-bis(PEG3-azide) linker) peptide 1: A[hArg]EC[Hyp]LVNPLCLHP[dE]W[hArg]C peptide 2: Ac-C[tBuAla]PE[dK](Pent4ynoyl)PYCFADPY[Nle]CA , give the reported EC50 (nM), PC3 co-culture.
0.05
